- assay: Pharmacokinetics: plasma levels after topical RB cream
- Format: in vivo, SKH1-Hrhr hairless mice
- reportedConditions: SKH1-Hrhr hairless, mouse, plasma, topical, 1 mg, 24 h post-dose; 3 mice; read-out: MEAN ng/ml RB (plasma)
reportedEndpoint: concentration at 24 h

| compound | resultValue |
| --- | --- |
| C=CC[N+]1([C@H]2C[C@H]3[C@@H]4CC[C@H]5C[C@H](O)[C@@H](N6CCOCC6)C[C@]5(C)[C@H]4CC[C@]3(C)[C@H]2OC(C)=O)CCCC1 [rocuronium bromide] | 4.7 ng/mL |

* * *

- Test system: antioxidant response element (ARE) pathway
- assay: Activation of the antioxidant response element (ARE) pathway
- Type: cell-based
- reportedConditions: final dose 100 μg/ml

| molecule | fold induction at 100 µg/mL |
| --- | --- |
| O=c1cc(-c2ccc(O)c(O)c2)oc2cc(O)cc(O)c12 | 2 |
| O=C(/C=C/c1ccc(O)c(O)c1)OCCc1ccccc1 | < 1.3 |
| O=c1c(O)c(-c2ccc(O)cc2)oc2cc(O)ccc12 [HI-7, 3,7,4′-trihydroxyflavone] | < 1.3 |
| O=c1c(O)c(-c2cc(O)c(O)c(O)c2)oc2cc(O)cc(O)c12 | < 1.3 |
| C=CCc1ccc(O)c(-c2cc(CC=C)ccc2O)c1 | < 1.3 |
| O=c1c(-c2ccc(O)cc2)coc2cc(O)c(O)cc12 [HI-4, 6,7,4′-trihydroxyisoflavone] | < 1.3 |
| O=c1c(O)c(-c2ccc(O)cc2)oc2c(O)c(O)cc(O)c12 | < 1.3 |
| O=C1C[C@@H](c2ccc(O)cc2)Oc2cc(O)cc(O)c21 | 2 |
| COc1cc(-c2oc3cc(O)cc(O)c3c(=O)c2O)ccc1O | < 1.3 |
| O=c1c(-c2ccc(O)c(O)c2)coc2cc(O)ccc12 [HI-1, 7,3,4′-trihydroxyisoflavone] | 5 |

FYI, the data here is from patent US12233073B2.
